The measured values listed here are drawn from PubChem BioAssay AID1259407.

Test system: CCRIS mutagenicity, Ames/micronucleus/aberration tests
Test: CCRIS mutagenicity studies
Details: End Point: IN VITRO CHROMOSOMAL ABERRATIONS; Test System: CHL CELLS; Metabolic Activation: NONE
Activity calls are given as the source filed them. The rule behind the calls is not given here.
Form entry, call: pick from yes (active), no (inactive)

Worked examples follow.
INSERT INTO assay_data (compound, assay_target, group_label) VALUES
  ('Nc1ccc([N+](=O)[O-])cc1[N+](=O)[O-]', 'CCRIS mutagenicity, Ames/micronucleus/aberration tests', 'no'),
  ('Cc1cc(-c2ccc(N)c(C)c2)ccc1N', 'CCRIS mutagenicity, Ames/micronucleus/aberration tests', 'yes'),
  ('Clc1ccc(C(Cl)(Cl)Cl)cc1', 'CCRIS mutagenicity, Ames/micronucleus/aberration tests', 'yes');

# next compound below
Query string: What was the test verdict on C=CCOCC1CO1 (centres undefined) ?
Result string: yes
